Property: % of Prodrug Remaining; scope: individual compounds
settings: aqueous buffer, 1 h, pH 8
The reply should contain only the number, in %.

These recorded examples may help you get a feel for the data.
{"COMPOUND": "CCOC(C)(OCC)C(=O)OCOC(=O)NC[C@H](CC(=O)[O-])c1ccc(Cl)cc1.[Na+] [(51)]", "% of Prodrug Remaining, %": 91}
{"COMPOUND": "CC(C)(C)C(=O)OCOC(=O)NC[C@H](CC(=O)[O-])c1ccc(Cl)cc1.[Na+] [(20)]", "% of Prodrug Remaining, %": 103}
{"COMPOUND": "CCCC(=O)OC(OC(=O)NC[C@H](CC(=O)[O-])c1ccc(Cl)cc1)C1CCCCC1.[Na+] (stereo partly drawn) [(85)]", "% of Prodrug Remaining, %": 93}

Request: Retrieve % of Prodrug Remaining measured for CC(=O)OCOC(=O)NC[C@H](CC(=O)[O-])c1ccc(Cl)cc1.[Na+] [(10)] and print it.
Response: 98

Request: Indicate its recorded % of Prodrug Remaining; the compound in question is CC(C)C(=O)OC(OC(=O)NC[C@H](CC(=O)[O-])c1ccc(Cl)cc1)C(C)C.[Na+] (stereo partly drawn) [(25)]
Response: 100

Request: Let me know recorded % of Prodrug Remaining for CC(C)C(=O)O[C@H](C)OC(=O)NC[C@H](CC(=O)[O-])c1ccc(Cl)cc1.[Na+] [(34)] , thanks.
Response: 100
